Source listed as ChEMBL document CHEMBL4041509.

Biological target: ATP-dependent translocase ABCB1 (Homo sapiens)
Experiment: Inhibition of ABCB1 (unknown origin) expressed in Flp-In-293 cells assessed as increase in calcein-AM uptake at 5 uM preincubated for 30 mins followed by calcein-AM addition measured after 30 mins by fluorescence spectrometric method relative to control
Format: cell-based
Conditions: 0.5 h
Measure: fold change (FC)
Please give only the number in your answer, with no unit.

// solved cases for fold change (FC) follow
COc1ccc(-c2cc(OCCCN3CCCCC3)c3c(-c4cccs4)c(N)oc3c2)cc1OC 4.55
CC(=O)Oc1cccc2oc(N)c(-c3cccs3)c12 1.12
COc1ccc(-c2cc(OCCN3CCCC3)c3c(-c4cccs4)c(N)oc3c2)cc1OC 8.52
COc1ccc(-c2cc(OC(C)=O)c3c(-c4cccs4)c(N)oc3c2)cc1 2.2

IN: fold change (FC) for "COc1ccc(-c2cc(OC(C)=O)c3c(-c4ccc(F)cc4)c(N)oc3c2)cc1" ?
OUT: 1.26

IN: # lookup: fold change (FC) of "COc1ccc(-c2cc(OCc3ccccn3)c3c(-c4cccs4)c(N)oc3c2)cc1"
OUT: 3.22

---

The entries below come with measured fold change (FC) values attached.
Tested on: HEK293
Assay: Potentiation of doxorubicin-induced cytotoxicity against human Flp-In-293 cells at 1 uM by SRB assay relative to control
Type: functional
Give your answer as a number; write no unit.

Molecule	Assayed Target	fold change (FC)
CCN(CC)CCOc1cc(-c2ccc(OC)c(OC)c2)cc2oc(N)c(-c3cccs3)c12	HEK293	1.03
COc1ccc(-c2cc(OCCN3CCCC3)c3c(-c4cccs4)c(N)oc3c2)cc1	HEK293	0.98
COc1ccc(CCN(C)CCCC(C#N)(c2ccc(OC)c(OC)c2)C(C)C)cc1OC (centres undefined)	HEK293	1.04

Okay, next one:
IN: What does the record list as fold change (FC) for "COc1ccc(-c2cc(OCCN3CCCC3)c3c(-c4cccs4)c(N)oc3c2)cc1OC" ?
OUT: 0.91

---

Here the recorded fold change (FC) is given for each entry.
Target: ATP-dependent translocase ABCB1 (Homo sapiens, UniProt P08183)
Sequence (P08183 whole entry): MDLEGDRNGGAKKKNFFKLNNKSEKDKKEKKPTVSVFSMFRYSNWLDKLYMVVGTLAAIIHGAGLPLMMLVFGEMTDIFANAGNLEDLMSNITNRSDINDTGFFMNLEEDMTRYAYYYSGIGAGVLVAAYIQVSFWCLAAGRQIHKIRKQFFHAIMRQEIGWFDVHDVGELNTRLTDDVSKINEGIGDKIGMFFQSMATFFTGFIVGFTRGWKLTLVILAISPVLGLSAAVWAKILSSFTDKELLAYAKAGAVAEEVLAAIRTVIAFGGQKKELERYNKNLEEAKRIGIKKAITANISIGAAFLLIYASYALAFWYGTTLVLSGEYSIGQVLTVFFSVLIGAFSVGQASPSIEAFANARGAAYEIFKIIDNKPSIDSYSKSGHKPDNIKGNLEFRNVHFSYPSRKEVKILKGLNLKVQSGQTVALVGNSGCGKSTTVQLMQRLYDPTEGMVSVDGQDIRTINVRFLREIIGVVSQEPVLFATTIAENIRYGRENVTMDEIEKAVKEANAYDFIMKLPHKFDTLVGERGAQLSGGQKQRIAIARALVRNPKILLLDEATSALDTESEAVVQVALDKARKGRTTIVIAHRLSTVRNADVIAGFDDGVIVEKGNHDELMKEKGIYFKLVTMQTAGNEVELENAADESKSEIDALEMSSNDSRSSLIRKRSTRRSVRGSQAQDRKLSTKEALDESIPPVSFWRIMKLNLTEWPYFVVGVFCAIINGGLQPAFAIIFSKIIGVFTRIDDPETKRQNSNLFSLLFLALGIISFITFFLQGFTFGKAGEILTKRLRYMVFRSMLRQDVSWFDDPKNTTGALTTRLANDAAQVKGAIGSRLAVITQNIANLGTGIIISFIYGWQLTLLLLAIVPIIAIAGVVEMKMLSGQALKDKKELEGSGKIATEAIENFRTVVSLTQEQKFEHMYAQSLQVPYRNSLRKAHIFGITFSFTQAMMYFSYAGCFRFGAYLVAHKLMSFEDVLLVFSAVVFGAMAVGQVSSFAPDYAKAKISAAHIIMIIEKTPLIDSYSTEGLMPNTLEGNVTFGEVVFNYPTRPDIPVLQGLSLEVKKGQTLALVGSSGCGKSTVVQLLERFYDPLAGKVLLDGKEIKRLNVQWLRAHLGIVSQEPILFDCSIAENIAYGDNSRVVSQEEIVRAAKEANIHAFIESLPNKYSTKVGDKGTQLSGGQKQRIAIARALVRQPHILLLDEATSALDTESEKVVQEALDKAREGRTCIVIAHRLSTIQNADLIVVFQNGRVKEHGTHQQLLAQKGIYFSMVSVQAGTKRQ
Experiment: Inhibition of ABCB1 (unknown origin) expressed in Flp-In-293 cells assessed as increase in calcein-AM uptake at 5 uM preincubated for 30 mins followed by calcein-AM addition measured after 30 mins by fluorescence spectrometric method relative to control
Assay type: cell-based
Details: 0.5 h
Reply with just the number.

Some molecules with recorded fold change (FC):
COc1ccc(-c2cc(OCCN3CCCCC3)c3c(-c4cccs4)c(N)oc3c2)cc1 7.53
COc1ccc(-c2cc(OC(C)=O)c3c(-c4c(F)cccc4Cl)c(N)oc3c2)cc1 1.61
COc1ccc(-c2cc(OC(C)=O)c3c(-c4ccccc4OC)c(N)oc3c2)cc1 1.49
COc1ccc(-c2cc(O)c3c(-c4cccs4)c(N)oc3c2)cc1 1.62
COc1ccc(-c2cc(OC(C)=O)c3c(-c4ccccc4Cl)c(N)oc3c2)cc1 1.59
COc1ccc(-c2cc(O)c3c(-c4cccs4)c(N)oc3c2)cc1OC 1.15

IN: Name the recorded fold change (FC) for "COc1ccc(-c2cc(OC(C)=O)c3c(-c4ccccc4F)c(N)oc3c2)cc1" .
OUT: 1.82

IN: Given "COc1ccc(-c2cc(OCc3cccc(OC)c3)c3c(-c4cccs4)c(N)oc3c2)cc1" , state its recorded fold change (FC).
OUT: 0.78

IN: Return reported fold change (FC); argument: "CC(=O)Oc1cc(-c2ccc3c(c2)OCO3)cc2oc(N)c(-c3cccs3)c12"
OUT: 0.86

IN: Dear colleague, I am looking for the recorded fold change (FC) of the following molecule: "COc1ccc(-c2cc(OC(C)=O)c3c(-c4cccnc4)c(N)oc3c2)cc1"
OUT: 1.13

---

The compounds listed here are annotated with their fold change (FC).
Organism: Homo sapiens
Assay: Inhibition of P-gp in human KBVIN cells assessed as potentiation of paclitaxel-induced cytotoxicity at 2.5 uM by SRB assay relative to control
Assay type: cell-based
# answer = number (no unit)

Answered cases to consult:
Compound	Measure	Value
COc1ccc(-c2cc(OCCN3CCCC3)c3c(-c4cccs4)c(N)oc3c2)cc1OC	fold change (FC)	9.27
COc1ccc(-c2cc(OCCN3CCCC3)c3c(-c4cccs4)c(N)oc3c2)cc1	fold change (FC)	14.7
COc1ccc(CCN(C)CCCC(C#N)(c2ccc(OC)c(OC)c2)C(C)C)cc1OC (centres undefined)	fold change (FC)	22.9

IN: Name the reported fold change (FC) value associated with the compound "CCN(CC)CCOc1cc(-c2ccc(OC)c(OC)c2)cc2oc(N)c(-c3cccs3)c12"
OUT: 38.7

---

Species on record: Homo sapiens
Assay: Inhibition of P-gp in human KBVIN cells assessed as potentiation of vincristine-induced cytotoxicity at 2.5 uM by SRB assay relative to control
Type: cell-based
Measure: fold change (FC)
No unit in the answer, please; the number alone is enough.

Molecule	fold change (FC)
COc1ccc(CCN(C)CCCC(C#N)(c2ccc(OC)c(OC)c2)C(C)C)cc1OC (centres undefined)	46.1
COc1ccc(-c2cc(OCCN3CCCC3)c3c(-c4cccs4)c(N)oc3c2)cc1OC	34.2
CCN(CC)CCOc1cc(-c2ccc(OC)c(OC)c2)cc2oc(N)c(-c3cccs3)c12	246

IN: Can you look up the measured fold change (FC) of "COc1ccc(-c2cc(OCCN3CCCC3)c3c(-c4cccs4)c(N)oc3c2)cc1" for me?
OUT: 260

---

Listing: fold change (FC) of selected molecules
Biological target: ATP-dependent translocase ABCB1 (Homo sapiens, UniProt P08183)
Assay: Inhibition of ABCB1 (unknown origin) expressed in Flp-In-293 cells assessed as increase in calcein-AM uptake at 5 uM preincubated for 30 mins followed by calcein-AM addition measured after 30 mins by fluorescence spectrometric method relative to control
Assay type: cell-based
Settings: 0.5 h

As a guide, the following entries are already answered.
COc1ccc(-c2cc(OCc3cccnc3)c3c(-c4cccs4)c(N)oc3c2)cc1 3.68
COc1ccc(-c2cc(OCCN3CCCCC3)c3c(-c4cccs4)c(N)oc3c2)cc1OC 6.06
COc1ccc(-c2cc(OCc3ncc(C)c(OC)c3C)c3c(-c4cccs4)c(N)oc3c2)cc1 7.97
COc1ccc(-c2cc(OC(C)=O)c3c(-c4ccc(C)cc4)c(N)oc3c2)cc1 1.86

IN: Would you mind telling me what fold change (FC) value was observed for "COc1ccc(-c2cc(OC(C)=O)c3c(-c4cccc(Cl)c4)c(N)oc3c2)cc1" ?
OUT: 2.45

---

Listed here: items and their measured fold change (FC).
System: HEK293
Test: Potentiation of vincristine-induced cytotoxicity against human Flp-In-293 cells at 1 uM by SRB assay relative to control
Assay type: functional
Please respond with just the number, no unit label.

Molecule	Measure	Value
COc1ccc(CCN(C)CCCC(C#N)(c2ccc(OC)c(OC)c2)C(C)C)cc1OC (centres undefined)	fold change (FC)	1.82

IN: // fetch HEK293 fold change (FC) for "COc1ccc(-c2cc(OCCN3CCCC3)c3c(-c4cccs4)c(N)oc3c2)cc1"
OUT: 1.95

IN: Lab request: please report fold change (FC) under test system HEK293 for "COc1ccc(-c2cc(OCCN3CCCC3)c3c(-c4cccs4)c(N)oc3c2)cc1OC"
OUT: 4.25

IN: What is its fold change (FC) for HEK293? Entry: "CCN(CC)CCOc1cc(-c2ccc(OC)c(OC)c2)cc2oc(N)c(-c3cccs3)c12"
OUT: 7.01

---

Property: fold change (FC); scope: individual compounds
Species: Homo sapiens
Experiment: Inhibition of P-gp in human HeLaS3 cells assessed as potentiation of doxorubicin-induced cytotoxicity at 2.5 uM by SRB assay relative to control
Assay type: cell-based
Would you mind answering with just the numeric figure?

IN: Could you share which fold change (FC) value was measured for "COc1ccc(-c2cc(OCCN3CCCC3)c3c(-c4cccs4)c(N)oc3c2)cc1" ?
OUT: 1.47

IN: Given the compound COc1ccc(CCN(C)CCCC(C#N)(c2ccc(OC)c(OC)c2)C(C)C)cc1OC (centres undefined) , what is its reported fold change (FC)?
OUT: 2.82

IN: What does the record list as fold change (FC) for "CCN(CC)CCOc1cc(-c2ccc(OC)c(OC)c2)cc2oc(N)c(-c3cccs3)c12" ?
OUT: 0.93

IN: Sample "COc1ccc(-c2cc(OCCN3CCCC3)c3c(-c4cccs4)c(N)oc3c2)cc1OC" — what was its fold change (FC)?
OUT: 2.71

---

Target: ATP-dependent translocase ABCB1 (Homo sapiens)
Assay: Inhibition of ABCB1 (unknown origin) expressed in Flp-In-293 cells assessed as increase in calcein-AM uptake at 2.5 uM preincubated for 30 mins followed by calcein-AM addition measured after 30 mins by fluorescence spectrometric method relative to control
Format: cell-based
Settings: 0.5 h
Measure: fold change (FC)
Lab note: record the figure alone, no unit after it.

IN: What value of fold change (FC) has been recorded for this entry: "COc1ccc(-c2cc(OC(C)=O)c3c(-c4ccccc4F)c(N)oc3c2)cc1"
OUT: 1.31

IN: I have this compound here, "COc1ccc(-c2cc(OC(C)=O)c3c(-c4c(F)cccc4Cl)c(N)oc3c2)cc1" , and I need its recorded fold change (FC).
OUT: 1.35

IN: I'd like to know its fold change (FC). The compound in question is "COc1ccc(-c2cc(O)c3c(-c4cccs4)c(N)oc3c2)cc1"
OUT: 1.46
